Parameter: IC50. Scope: all listed entries.
System Tested: luciferase-CDK2/cyclin E1 in HEK293 cells (Homo sapiens)
Construct: NV2641 (CCNE1); host or cells: HEK293 (ATCC CRL-1573)
Method Summary: cell-based
Details: average ± SD, n = 6, read-out: IC50, inhibition of luciferase-CDK2/cyclin E1 nanoBRET signal
Property Label: IC50 (µM)

Molecule	Numeric Result
Cc1cc(O)c(C)c2c1C(=O)Oc1c(C)c(O)c(O)c(C)c1O2 [compound 10, roseopurpurin G]	40
Cc1cc(O)c(C)c2c1Oc1c(C)c(O)cc(C)c1C(=O)O2 [compound 8]	27

----------
System Tested: CDK2/cyclin E1 (Homo sapiens, UniProt P24941)
Method Summary: CDK2/cyclin E1 ATPase assay (ADP-Glo; phosphorylation of histone H1)
Details: read-out: IC50, inhibition of CDK2/cyclin E1-dependent phosphorylation of Histone H1; commercially available depsides and depsidones; n=2
Property Label: IC50 (µM)

Compound	Numeric Result
C/C=C(/C)c1cc(O)c(C)c2c1Oc1c(C)c(O)cc(/C(C)=C\C)c1C(=O)O2 [folipastatin, reference compound]	24
C/C=C(\C)c1cc(O)c(C)c2c1Oc1cc(O)cc(C)c1C(=O)O2 [unguinol, Unguinol, reference compound]	14
